Below, each entry is listed alongside its reported viability, T/C.
System: K24384-001-R-PDC complex spheroid viability;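 also: spheroids exposed to agents for seven days before luminescence viability reading; 100% = DMSO vehicle control viability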
protocol_details: Anticancer human tumor K24384-001-R-PDC patient-derived pancreatic adenocarcinoma cell line growth inhibition
recorded_conditions: second compound 3.16 µM; first compound 0.003 µM; hits give low values

compound | viability, T/C
Nc1ncn(C2CC(O)C(CO)S2)c(=O)n1 (stereo unspecified) + NC1CC1c1ccc(-c2cccc(O)c2)cc1 | 113%
CCc1c2c(nc3ccc(O)cc13)-c1cc3c(c(=O)n1C2)COC(=O)[C@]3(O)CC + NC1CCC(NC2CC2c2ccccc2)CC1 | 43%
Nc1ccn(C2OC(CO)C(O)C2(F)F)c(=O)n1 (stereo unspecified) + NC1CCC(NC2CC2c2ccccc2)CC1 | 77.5%
Nc1ncn(C2CC(O)C(CO)S2)c(=O)n1 (stereo unspecified) + NC1CCC(NC2CC2c2ccccc2)CC1 | 97.9%
CCc1c2c(nc3ccc(O)cc13)-c1cc3c(c(=O)n1C2)COC(=O)[C@]3(O)CC + NC1CC1c1ccc(-c2cccc(O)c2)cc1 | 33.7%
Nc1ccn(C2OC(CO)C(O)C2(F)F)c(=O)n1 (stereo unspecified) + NC1CC1c1ccc(-c2cccc(O)c2)cc1 | 81.2%
